target.of.assay: α1V2'Aβ2γ2 (Homo sapiens, UniProt P14867+P18507+P47870, V284A)
Sequence (P18507 40-475, one chain of several): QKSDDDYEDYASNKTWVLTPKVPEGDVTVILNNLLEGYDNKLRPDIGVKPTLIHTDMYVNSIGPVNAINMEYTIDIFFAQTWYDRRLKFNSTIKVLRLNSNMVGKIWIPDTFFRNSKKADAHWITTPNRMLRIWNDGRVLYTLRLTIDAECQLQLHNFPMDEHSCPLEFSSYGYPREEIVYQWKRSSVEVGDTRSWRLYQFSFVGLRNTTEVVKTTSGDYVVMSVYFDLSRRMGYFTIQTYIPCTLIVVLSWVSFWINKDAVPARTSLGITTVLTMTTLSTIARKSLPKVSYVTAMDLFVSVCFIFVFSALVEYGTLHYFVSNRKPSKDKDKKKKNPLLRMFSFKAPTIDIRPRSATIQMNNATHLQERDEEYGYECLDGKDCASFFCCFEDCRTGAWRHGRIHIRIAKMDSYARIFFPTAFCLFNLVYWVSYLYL
value.type: IC50 (µM)
// note: answer is a bare numeric in µM

[Q] Tell me the measured IC50 of CC(C)(C)[C@]1(O)CC2OC(=O)CC23C(=O)OC2OC(=O)[C@H](O)C231 (stereo partly shown) [BB, bilobalide] , please.
[A] 3.55

---

target.of.assay: RDL (Drosophila melanogaster, UniProt P25123)
Format: cell-based
conditions: IC50, inhibition of GABA-evoked RDL currents, as printed in text and Fig. 6
value.type: IC50 (nM)
// note: answer is a bare numeric in nM

[Q] Tell me the measured IC50 of C[C@@H]1C(=O)O[C@H]2C[C@@]34[C@H]5C[C@@H](C(C)(C)C)[C@]36[C@@H](OC(=O)[C@@H]6O)O[C@@]4(C(=O)O5)[C@]21O [GA, ginkgolide A] , please.
[A] 3.1

---

target.of.assay: α1V2'Aβ2 (Homo sapiens, UniProt P14867+P47870, V284A)
Sequence (P14867 28-456 V284A): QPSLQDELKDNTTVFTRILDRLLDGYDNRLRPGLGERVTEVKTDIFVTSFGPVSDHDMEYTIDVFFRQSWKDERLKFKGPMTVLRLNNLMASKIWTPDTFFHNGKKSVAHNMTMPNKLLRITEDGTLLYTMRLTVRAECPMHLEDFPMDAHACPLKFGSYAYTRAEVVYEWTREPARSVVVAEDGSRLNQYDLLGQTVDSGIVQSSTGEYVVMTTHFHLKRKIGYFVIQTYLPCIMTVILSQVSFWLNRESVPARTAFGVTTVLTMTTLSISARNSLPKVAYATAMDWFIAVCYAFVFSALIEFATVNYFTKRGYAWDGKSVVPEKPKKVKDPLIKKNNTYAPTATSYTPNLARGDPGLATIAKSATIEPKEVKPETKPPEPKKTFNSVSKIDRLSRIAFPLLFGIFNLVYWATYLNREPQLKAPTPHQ
Sequence (P47870 26-512): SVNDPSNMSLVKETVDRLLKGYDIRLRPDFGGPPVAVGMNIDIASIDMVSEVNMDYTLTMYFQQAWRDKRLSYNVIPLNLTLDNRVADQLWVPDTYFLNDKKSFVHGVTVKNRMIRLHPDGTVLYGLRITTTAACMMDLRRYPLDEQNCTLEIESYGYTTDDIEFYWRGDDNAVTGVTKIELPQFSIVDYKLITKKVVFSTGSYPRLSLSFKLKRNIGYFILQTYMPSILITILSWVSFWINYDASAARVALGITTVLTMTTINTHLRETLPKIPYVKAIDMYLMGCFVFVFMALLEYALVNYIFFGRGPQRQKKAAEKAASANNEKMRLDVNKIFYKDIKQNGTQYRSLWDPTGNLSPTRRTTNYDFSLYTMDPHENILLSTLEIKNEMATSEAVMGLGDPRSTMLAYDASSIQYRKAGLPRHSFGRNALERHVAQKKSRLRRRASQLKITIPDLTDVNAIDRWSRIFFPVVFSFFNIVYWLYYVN
conditions: IC50, inhibition of GABA EC50 response
value.type: IC50 (nM)
// note: answer is a bare numeric in nM

[Q] Tell me the measured IC50 of CC(C)(C)[C@]1(O)CC2OC(=O)CC23C(=O)OC2OC(=O)[C@H](O)C231 (stereo partly shown) [BB, bilobalide] , please.
[A] 2040

---

target.of.assay: α1β2γ2 GABAA receptors (Homo sapiens, UniProt P14867+P18507+P47870)
Sequence (P14867 28-456, one chain of several): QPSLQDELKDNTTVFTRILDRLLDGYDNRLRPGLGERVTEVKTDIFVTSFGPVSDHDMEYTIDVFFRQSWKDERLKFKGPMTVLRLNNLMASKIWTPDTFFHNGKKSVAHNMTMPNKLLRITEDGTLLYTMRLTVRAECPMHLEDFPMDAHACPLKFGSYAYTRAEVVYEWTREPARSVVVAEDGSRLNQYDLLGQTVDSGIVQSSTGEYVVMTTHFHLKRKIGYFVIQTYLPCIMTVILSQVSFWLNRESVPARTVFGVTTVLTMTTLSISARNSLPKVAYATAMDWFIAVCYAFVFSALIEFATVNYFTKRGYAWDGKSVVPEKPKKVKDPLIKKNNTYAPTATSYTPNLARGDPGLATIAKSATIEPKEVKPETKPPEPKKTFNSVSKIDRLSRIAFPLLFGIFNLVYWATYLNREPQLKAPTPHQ
Sequence (P18507 40-475, one chain of several): as the sequence (P18507 40-475, one chain of several) above
test.name: Two-electrode voltage clamp of α1β2γ2 GABAA receptors in Xenopus oocytes
value.type: IC50 (µM)
// note: answer is a bare numeric in µM

C[C@@H]1C(=O)O[C@H]2C[C@@]34[C@H]5C[C@@H](C(C)(C)C)[C@]36[C@@H](OC(=O)[C@@H]6O)O[C@@]4(C(=O)O5)[C@]21O [GA, ginkgolide A]; 38.9

Pending molecule:
[Q] Tell me the measured IC50 of CC(C)(C)[C@]1(O)CC2OC(=O)CC23C(=O)OC2OC(=O)[C@H](O)C231 (some centres unmarked) [BB, bilobalide] , please.
[A] 22.9

---

target.of.assay: RDL (Drosophila melanogaster, UniProt P25123)
Sequence (P25123 45-606): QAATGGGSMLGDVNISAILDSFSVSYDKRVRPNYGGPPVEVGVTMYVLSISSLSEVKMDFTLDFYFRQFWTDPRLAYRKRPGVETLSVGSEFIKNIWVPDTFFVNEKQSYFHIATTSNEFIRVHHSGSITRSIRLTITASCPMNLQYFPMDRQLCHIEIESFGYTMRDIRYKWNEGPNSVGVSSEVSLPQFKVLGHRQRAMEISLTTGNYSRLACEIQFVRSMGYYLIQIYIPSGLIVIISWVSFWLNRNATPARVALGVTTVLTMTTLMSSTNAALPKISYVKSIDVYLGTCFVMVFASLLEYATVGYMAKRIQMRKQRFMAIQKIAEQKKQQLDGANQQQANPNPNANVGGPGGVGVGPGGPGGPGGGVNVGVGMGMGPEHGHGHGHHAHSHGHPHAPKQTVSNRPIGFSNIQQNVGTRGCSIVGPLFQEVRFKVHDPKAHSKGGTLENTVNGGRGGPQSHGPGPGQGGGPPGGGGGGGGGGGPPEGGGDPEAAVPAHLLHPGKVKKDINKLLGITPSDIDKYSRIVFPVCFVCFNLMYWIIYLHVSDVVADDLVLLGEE
Assay type: cell-based
conditions: IC50, inhibition of GABA EC50 response, second stable level of inhibition
value.type: IC50 (nM)
// note: answer is a bare numeric in nM

[Q] Tell me the measured IC50 of C[C@@H]1C(=O)O[C@H]2C[C@@]34[C@H]5C[C@@H](C(C)(C)C)[C@]36[C@@H](OC(=O)[C@@H]6O)O[C@@]4(C(=O)O5)[C@]21O [GA, ginkgolide A] , please.
[A] 3

---

target.of.assay: RDL (Drosophila melanogaster, UniProt P25123)
Sequence (P25123 45-606): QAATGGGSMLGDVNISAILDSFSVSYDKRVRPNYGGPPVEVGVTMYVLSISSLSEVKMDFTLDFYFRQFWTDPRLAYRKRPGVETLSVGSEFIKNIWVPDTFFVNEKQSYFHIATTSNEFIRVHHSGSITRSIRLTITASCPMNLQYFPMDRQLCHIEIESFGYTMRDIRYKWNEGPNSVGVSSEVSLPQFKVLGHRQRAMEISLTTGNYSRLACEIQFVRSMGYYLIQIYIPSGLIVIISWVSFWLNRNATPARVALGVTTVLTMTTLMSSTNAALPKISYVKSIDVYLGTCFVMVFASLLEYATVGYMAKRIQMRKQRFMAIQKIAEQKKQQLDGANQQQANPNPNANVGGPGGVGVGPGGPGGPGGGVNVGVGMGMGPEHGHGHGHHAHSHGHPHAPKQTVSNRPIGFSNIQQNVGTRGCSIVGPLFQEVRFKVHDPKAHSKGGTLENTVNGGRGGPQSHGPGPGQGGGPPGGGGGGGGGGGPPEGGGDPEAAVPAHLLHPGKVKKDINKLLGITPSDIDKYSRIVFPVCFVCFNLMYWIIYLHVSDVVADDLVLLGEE
Format: cell-based
value.type: IC50

[Q] Tell me the measured IC50 of CC(C)(C)[C@]1(O)CC2OC(=O)CC23C(=O)OC2OC(=O)[C@H](O)C231 (stereo partly shown) [BB, bilobalide] , please.
[A] 316 nM
